Molecular target: Estrogen receptor (Homo sapiens)
Experiment: Antagonist activity at ERalpha (unknown origin) expressed in human MCF7 cells assessed as inhibition of E2-induced response at 10 uM by dual luciferase reporter gene assay
Assay type: cell-based
Active and inactive are the calls of the source. The calls are words filed in the database; no cut-off is given here.
PROPERTY: inhibition

So what does the record say about inhibition for CCCC(CCC)(c1ccc(O)c(C)c1)c1cc(C)cs1 ?
inactive

Another compound: CCCC(CCC)(c1ccc(O)c(C)c1)c1ccc(C(=O)O)n1C
inactive

Same for CCCC(CCC)(c1ccc(O)c(C)c1)c1cccs1
inactive

Also, CCCC(CCC)(c1ccc(O)c(C)c1)c1c[nH]c2cc(OCc3ccccc3)ccc12 please.
44%

New cases:
Quick one: inhibition for CCCC(CCC)(c1ccc(O)c(C)c1)c1c[nH]c2cccc(OCc3ccccc3)c12 ?
inactive

Please do the same for CCCC(CCC)(c1ccc(O)c(C)c1)c1ccc(C(=O)OCC)n1C as well.
41%

Let us now turn to CCCC(CCC)(c1ccc(O)c(C)c1)c1ccc(C(=O)O)[nH]1
inactive

====

Reported values of log10(IC50) for individual entries
Target: Estrogen receptor (Homo sapiens, UniProt P03372)
Sequence (P03372 whole entry): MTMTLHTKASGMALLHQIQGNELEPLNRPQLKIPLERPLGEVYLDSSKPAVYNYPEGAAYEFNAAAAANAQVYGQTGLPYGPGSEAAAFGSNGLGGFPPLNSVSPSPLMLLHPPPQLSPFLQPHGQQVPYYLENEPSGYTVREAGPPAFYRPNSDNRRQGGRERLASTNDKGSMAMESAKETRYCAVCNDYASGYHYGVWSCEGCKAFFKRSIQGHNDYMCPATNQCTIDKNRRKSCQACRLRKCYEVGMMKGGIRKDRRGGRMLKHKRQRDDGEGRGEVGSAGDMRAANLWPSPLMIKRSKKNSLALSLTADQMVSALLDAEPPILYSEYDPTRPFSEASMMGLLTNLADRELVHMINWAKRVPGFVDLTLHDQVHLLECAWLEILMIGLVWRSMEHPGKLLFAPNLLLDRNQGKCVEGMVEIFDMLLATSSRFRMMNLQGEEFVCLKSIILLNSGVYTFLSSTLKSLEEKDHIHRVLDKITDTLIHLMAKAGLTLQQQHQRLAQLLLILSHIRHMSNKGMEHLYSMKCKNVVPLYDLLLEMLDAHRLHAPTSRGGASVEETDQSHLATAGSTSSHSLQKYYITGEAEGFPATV
Experiment: biochemical
Description: Displacement of Fluormone ES2 from full length recombinant human untagged ERalpha expressed in Sf insect cells by fluorescence polarization assay
Recall that a logarithmic scale is used here: each number is log10 of IC50 in nM.

Value wanted: log10(IC50) (Estrogen receptor (Homo sapiens, UniProt P03372)) of entry CCCC(CCC)(c1ccc(O)c(C)c1)c1cccs1
3.67

Subsequent entry: CCCC(CCC)(c1ccc(O)c(C)c1)c1cc(C)cs1
3.05

Entry CCCC(CCC)(c1ccc(O)c(C)c1)c1c[nH]c2cc(OCc3ccccc3)ccc12 please
2.79

Param item: CCCC(CCC)(c1ccc(O)c(C)c1)c1ccc(C(=O)OCC)n1C
3.02

Input CCCC(CCC)(c1ccc(O)c(C)c1)c1ccc(C(=O)OCC)[nH]1
2.29

====

Target: Estrogen receptor (Homo sapiens, UniProt P03372)
PROPERTY: IC50 (µM)
# number only, unit µM dropped from output

Give the measured IC50 of CCCC(CCC)(c1ccc(O)c(C)c1)c1ccc(C(=O)OCC)[nH]1 .
0.45

====

Target: Estrogen receptor (Homo sapiens)
Experiment: biochemical
pIC50: −log10 of the molar value.
Each record here notes measured pIC50.

Observe how each entry below is paired with its result.
Bench note: what pIC50 did CCCC(CCC)(c1ccc(O)c(C)c1)c1c[nH]c2cccc(OCc3ccccc3)c12 show?
< 5.00

Also, CCCC(CCC)(c1ccc(O)c(C)c1)c1ccc(C(=O)O)[nH]1 please.
< 5.00

# next molecule below
Looking for the measured pIC50 of CCCC(CCC)(c1ccc(O)c(C)c1)c1ccc(C(=O)O)n1C , can you help?
< 5.00
